Tested on: antibody in the antiserum of rabbit immunized by the CPZ-BSA immunogen
MEASUREMENT NOTES: Radioimmunoassay specificity: inhibition of 3H-CPZ binding to antibody
CONDITION PARAMETERS: competition with labeled CPZ
TEST READOUT: binding by the antibody (in words)

• CN(C)CCCN1c2ccccc2[S+]([O-])c2ccc(Cl)cc21 (stereo not shown) [chlorpromazine sulfoxide] = not bound significantly
• CNCCCN1c2ccccc2Sc2ccc(Cl)cc21 = not bound significantly
• NCCCN1c2ccccc2Sc2ccc(Cl)cc21 = not bound significantly

Data credit: patent US3976763A
